# Test system: effects of 5-HTP
# ASSAY PROCEDURE: Potentiation of effects of 5-HTP in mice
# Type: in vivo
# CONDITION SET: Mus musculus, 1 h; i.p. one hour before 5-HTP 200 mg/kg i.p.; trembling observed for an hour; read-out: MAD (minimal active dose), potentiation of 5-HTP effects
Counter-ions that a name gives are not always drawn.
MEASURED ENDPOINT: minimal effective dose (mg/kg)

CNC1C=Cc2cc(Cl)ccc2CC1.Cl (stereo not shown)    10
CN1CCN(C2C=Cc3ccccc3CC2)CC1 (stereo not shown)    50
CN(C)C1C=Cc2ccccc2CC1 (stereo not shown) [Example 1, hydrochloride]    20
CCNC1C=Cc2ccccc2CC1 (stereo not shown) [Example 12, hydrochloride]    20
